- measurement-target: T1, full length human DLL4 (human, UniProt Q9NR61 27-685)
- T1 construct: whole, on cells; also called native DLL4 expressed in HEK293 cells
- T1 sequence (Q9NR61 27-685): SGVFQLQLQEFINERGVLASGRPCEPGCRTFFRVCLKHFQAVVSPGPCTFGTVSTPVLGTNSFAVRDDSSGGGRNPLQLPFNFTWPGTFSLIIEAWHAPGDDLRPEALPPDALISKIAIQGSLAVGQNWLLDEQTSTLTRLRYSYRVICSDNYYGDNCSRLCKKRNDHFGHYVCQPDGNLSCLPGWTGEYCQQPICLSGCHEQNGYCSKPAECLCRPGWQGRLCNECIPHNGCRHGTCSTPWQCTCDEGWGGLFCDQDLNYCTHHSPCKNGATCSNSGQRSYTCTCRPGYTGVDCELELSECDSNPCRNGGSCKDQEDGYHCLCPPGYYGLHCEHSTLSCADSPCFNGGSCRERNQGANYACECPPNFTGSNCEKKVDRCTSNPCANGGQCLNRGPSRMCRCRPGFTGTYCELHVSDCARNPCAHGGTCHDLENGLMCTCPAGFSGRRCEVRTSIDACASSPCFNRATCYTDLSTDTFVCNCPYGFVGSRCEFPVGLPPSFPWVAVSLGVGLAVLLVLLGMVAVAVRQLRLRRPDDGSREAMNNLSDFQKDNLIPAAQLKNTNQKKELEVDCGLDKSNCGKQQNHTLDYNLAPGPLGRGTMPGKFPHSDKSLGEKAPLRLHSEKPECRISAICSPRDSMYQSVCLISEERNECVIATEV
- experimental-protocol: FMAT competition, supernatant vs Alexa-647 human Notch1/Fc, 293T cells with human DLL4
The binders listed here are annotated with their % inhibition n = 1.
Write down the numeric answer in % and omit the unit.

Query :: Look up % inhibition n = 1 for this binder: 1D4 (antibody, IgG4, V domains shown, Fully human XenoMouse antibody; also used where no isotype is printed) VH: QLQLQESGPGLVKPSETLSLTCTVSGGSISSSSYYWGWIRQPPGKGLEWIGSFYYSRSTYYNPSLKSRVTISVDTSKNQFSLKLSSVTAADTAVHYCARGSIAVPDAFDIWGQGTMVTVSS VL: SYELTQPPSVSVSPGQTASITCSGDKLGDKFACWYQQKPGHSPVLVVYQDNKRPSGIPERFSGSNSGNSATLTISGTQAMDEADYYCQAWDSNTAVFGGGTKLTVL
Result :: 105

Query :: Recorded % inhibition n = 1 of 4B3 (antibody, IgG4, V domains shown, Fully human; also used where no isotype is printed) VH: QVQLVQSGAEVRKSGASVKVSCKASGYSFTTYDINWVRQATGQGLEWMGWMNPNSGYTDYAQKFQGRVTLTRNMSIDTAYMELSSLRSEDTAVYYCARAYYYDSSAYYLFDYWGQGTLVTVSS VL: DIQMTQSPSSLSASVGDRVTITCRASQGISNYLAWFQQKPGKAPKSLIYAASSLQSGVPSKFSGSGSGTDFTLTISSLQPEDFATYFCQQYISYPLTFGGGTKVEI , please.
Result :: 106

The values you see were collected from patent US20100196385A1.
